Listed below: Population Membrane Permeable-Phenotype (%) values for each entry.
- Tested on: HEK-293T
- EXPERIMENTAL_PROTOCOL: Multiplex assay against HEK293T
- Format: toxicity, cell-based
- APPLIED_CONDITIONS: human, 24 h, 1 µM, compound concentration 1 uM, number of replicates 2
TEST_READOUT: Population Membrane Permeable-Phenotype (%)

| SMILES_REPRESENTATION | READING |
| --- | --- |
| N=C(N)NCCC[C@H](NC(=O)COCC(c1ccccc1)c1ccccc1)C(=O)O.O=C(O)C(F)(F)F | 3 |
| CCCN(CCc1cccs1)[C@H]1CCc2c(O)cccc2C1 | 2 |
| Cc1onc(-c2ccccc2Cl)c1C(=O)N(C)c1ccc(Cl)cc1 | 2 |
| COc1ccc(-c2cc3c(C)nc(N)nc3n([C@H]3CC[C@H](OCCO)CC3)c2=O)cn1 | 1 |
| CCn1c(-c2nonc2N)nc2cncc(C(=O)N3CC[C@H](N)C3)c21.Cl | 2 |

* * *

- Tested on: HEK-293T
- EXPERIMENTAL_PROTOCOL: Multiplex assay against HEK293T
- Format: toxicity, cell-based
- APPLIED_CONDITIONS: human, 12 h, 10 µM, compound concentration 10 uM, number of replicates 2
// Population Mitochondria Different-Phenotype (%) lookup, one value per entry
TEST_READOUT: Population Mitochondria Different-Phenotype (%)

| MOLECULE | READING |
| --- | --- |
| CC(C)S(=O)(=O)c1ccccc1Nc1nc(N[C@@H]2CCCN(CCCCCCCNC(=O)COc3cccc4c3C(=O)N(C3CCC(=O)N(C)C3=O)C4=O)C2)ncc1Cl (stereo partly specified) | 76% |
| NCC1CCC(CNc2nc(NCc3ccccc3OC(F)(F)F)ncc2[N+](=O)[O-])CC1 (stereo unspecified) | 82% |
| CCCCOc1c(C(=O)c2c(F)cc(C)cc2F)c[nH]c2nncc1-2 | 17% |
| COc1nc2ccc([C@@](O)(c3ccc(Cl)cc3)c3cncn3C)cc2c(Cl)c1Cc1ccc(-n2cccn2)cc1 | 24% |
| C=CC(=O)Nc1ccc2[nH]c(=O)n(C3CCN(Cc4ccc(-c5ccc6c(c5)NC(=O)CO6)cc4)CC3)c2c1 | 39% |
| CN1CCc2cc(Cl)c(O)cc2[C@@H](c2ccccc2)C1.Cl | 11% |

* * *

- System: HEK-293T
- EXPERIMENTAL_PROTOCOL: Multiplex assay against HEK293T
- Type: toxicity, cell-based
- APPLIED_CONDITIONS: human, 24 h, 1 µM, compound concentration 1 uM, number of replicates 2

| COMPOUND | TESTED_TARGET | U | Population Fragmented Nuclei (%) |
| --- | --- | --- | --- |
| COc1ccc(-c2cc3c(C)nc(N)nc3n([C@H]3CC[C@H](OCCO)CC3)c2=O)cn1 [PF-04691502] | HEK-293T | % | 7 |
| CCn1ccc(Nc2ncc3c(n2)-c2c(nn(C)c2-c2ccc(-c4cnn(C)c4)cc2Cl)CC3)n1 | HEK-293T | % | 5 |
| COc1cc(OC)cc(C(=O)NNC(=O)Nc2cccc3ccccc23)c1 | HEK-293T | % | 3 |
| CCNc1ccc(-c2nn(-c3ccccc3C)c3c2C(C)Cc2nc(NC(=O)OC)sc2-3)cn1.O=C(O)C(F)(F)F (stereo unspecified) | HEK-293T | % | 5 |
| CCn1c(-c2nonc2N)nc2cncc(C(=O)N3CC[C@H](N)C3)c21.Cl | HEK-293T | % | 3 |
| N=C(N)NCCC[C@H](NC(=O)COCC(c1ccccc1)c1ccccc1)C(=O)O.O=C(O)C(F)(F)F | HEK-293T | % | 4 |
| Cc1cc(NC(=O)c2cccc(NC(=O)/C=C/CN(C)C)c2)ccc1Nc1nccc(-c2cccnc2)n1 | HEK-293T | % | 5 |
| Cc1onc(-c2ccccc2Cl)c1C(=O)N(C)c1ccc(Cl)cc1 | HEK-293T | % | 7 |
| COc1ccc(NC(=O)c2ccc(-c3ccc(-c4noc(C)n4)cc3C)cc2)cc1OCCN(C)C.Cl | HEK-293T | % | 5 |
| Br.Cc1cccc(C2CN(C)CCc3c2cc(O)c(O)c3Cl)c1 (stereo unspecified) | HEK-293T | % | 5 |
| COc1cc(Nc2cnc(C#N)c(O[C@H](C)CN(C)C)n2)ncc1-c1cnn(C)c1 | HEK-293T | % | 5 |

* * *

- Tested on: HEK-293T
- EXPERIMENTAL_PROTOCOL: Multiplex assay against HEK293T
- Type: toxicity, cell-based
- APPLIED_CONDITIONS: human, 24 h, 1 µM, compound concentration 1 uM, number of replicates 2
Outcome label depends on Population Hoechst High Intensity Objects (%) relative to 10%: at/above gives 1, below gives -1.

| COMPOUND | TESTED_TARGET | LABEL |
| --- | --- | --- |
| CCCN(CCc1cccs1)[C@H]1CCc2c(O)cccc2C1 [ROTIGOTINE] | HEK-293T | -1 |
| CN1CCCN(C(=O)c2cccc(-c3ccc(/C=C4/C(=O)Nc5ccc(Cl)cc54)o3)c2)CC1 | HEK-293T | -1 |
| COc1cc(C(=O)NC2CCN(C)CC2)ccc1Nc1ncc(C(F)(F)F)c(NCc2ccc(C)cc2N(C)S(C)(=O)=O)n1.O=CO.O=CO | HEK-293T | 1 |
| CN(C)CC#Cc1ccc2[nH]c3c(c2c1)-c1nc(N)ncc1CCC3 | HEK-293T | 1 |
| CN[C@@H]1CC[C@@H](c2ccc(Cl)c(Cl)c2)c2ccccc21.Cl | HEK-293T | -1 |
| CC1=C(C)C(=O)C(C(C)(C)CC(=O)N(CCCCSC[C@H]2O[C@@H](n3cnc4c(N)ncnc43)[C@H](O)[C@@H]2O)Cc2cccc(-c3ccc(Cl)cc3)c2)=C(C)C1=O | HEK-293T | -1 |
| C=CC(=O)Nc1ccc2[nH]c(=O)n(C3CCN(Cc4ccc(-c5ccc6c(c5)NC(=O)CO6)cc4)CC3)c2c1 [RL2578] | HEK-293T | -1 |

* * *

- System: HEK-293T
- EXPERIMENTAL_PROTOCOL: Multiplex assay against HEK293T
- Type: toxicity, cell-based
- APPLIED_CONDITIONS: human, 24 h, 10 µM, compound concentration 10 uM, number of replicates 2
The entries below are paired with their reported Population Pyknosed Nuclei (%).
TEST_READOUT: Population Pyknosed Nuclei (%)

| COMPOUND | TESTED_TARGET | READING |
| --- | --- | --- |
| CN1CCN(c2ccc(-n3cc(-c4ccncc4OCC4CCNCC4)cn3)cc2)CC1 | HEK-293T | 1% |
| CN1CCc2cc(Cl)c(O)cc2[C@@H](c2ccccc2)C1.Cl | HEK-293T | 4% |
| Cc1cc(C2CCCNC2)ccc1Nc1ncc(Br)c(NCc2cccc3c2C(C)(C)C(=O)N3)n1 (stereo not given) | HEK-293T | 5% |
| CS(=O)(=O)c1ccc(C(=O)Nc2cc(F)cc(COc3ccc(Br)cc3CN3CC[C@H](O)C3)c2)c(Cl)c1.O=CO | HEK-293T | 17% |
| CCCN(CCc1cccs1)[C@H]1CCc2c(O)cccc2C1 [ROTIGOTINE] | HEK-293T | 5% |

* * *

- Test system: U2OS
- EXPERIMENTAL_PROTOCOL: Multiplex assay against U2OS
- Type: toxicity, cell-based
- APPLIED_CONDITIONS: human, 48 h, 1 µM, compound concentration 1 uM, number of replicates 2
Known Population Pyknosed Nuclei (%) of a selection of compounds
TEST_READOUT: Population Pyknosed Nuclei (%)

| SMILES_REPRESENTATION | U | READING |
| --- | --- | --- |
| Cc1onc(-c2ccccc2Cl)c1C(=O)N(C)c1ccc(Cl)cc1 | % | 6 |
| CS(=O)(=O)c1ccc(C(=O)Nc2cc(F)cc(COc3ccc(Br)cc3CN3CC[C@H](O)C3)c2)c(Cl)c1.O=CO | % | 18 |
| CS(=O)(=O)c1ccc(C(=O)Nc2cccc(COc3ccc(Br)cc3CN3CC[C@@H](O)C3)c2)c(Cl)c1.O=CO | % | 15 |
| CS(=O)(=O)c1ccc(C(=O)Nc2cccc(COc3ccc(Br)cc3CN3CCC[C@H](O)C3)c2)c(Cl)c1.O=CO | % | 19 |
| Cn1ncc(NC(=O)c2nc(-c3c(F)cccc3F)sc2N)c1N1CC[C@@H](N)[C@H](F)CC1 | % | 5 |
| Cc1ccc(C(=O)Nc2cc(N3CCN(C)CC3)cc(C(F)(F)F)c2)cc1-n1cc(-c2cnn(C)c2C)nn1.Cl | % | 24 |

* * *

- Test system: HEK-293T
- EXPERIMENTAL_PROTOCOL: Multiplex assay against HEK293T
- Type: toxicity, cell-based
- APPLIED_CONDITIONS: human, 48 h, 10 µM, compound concentration 10 uM, number of replicates 2
Response key: rule met means Population Pyknosed Nuclei (%) >= 3%; rule not met means Population Pyknosed Nuclei (%) < 3%.

| MOLECULE | TESTED_TARGET | LABEL |
| --- | --- | --- |
| CCN1CCN(Cc2ccc(C(=O)Nc3ccc(C)c(Oc4ccc5c(c4)CC(=O)N5)c3)cc2C(F)(F)F)CC1.Cl.Cl | HEK-293T | rule met |
| CN1CCc2cc(Cl)c(O)cc2[C@@H](c2ccccc2)C1.Cl | HEK-293T | rule not met |
| N=C(N)NCCC[C@H](NC(=O)COCC(c1ccccc1)c1ccccc1)C(=O)O.O=C(O)C(F)(F)F | HEK-293T | rule not met |
| CC1(C)C(=O)N([C@H]2CCc3c(O)cccc32)c2nc(Nc3cccc(CN4CCCC4)c3)ncc21 | HEK-293T | rule met |
| CC(C)N(CCCCOCC(=O)NS(C)(=O)=O)c1cnc(-c2ccccc2)c(-c2ccccc2)n1 [SELEXIPAG] | HEK-293T | rule not met |
| NCC1CCC(CNc2nc(NCc3ccccc3OC(F)(F)F)ncc2[N+](=O)[O-])CC1 (centres undefined) | HEK-293T | rule met |
| Br.Cc1cccc(C2CN(C)CCc3c2cc(O)c(O)c3Cl)c1 (centres undefined) | HEK-293T | rule not met |
| Cc1cccc(S(=O)(=O)N(C)[C@H](C)CCN2CCC(C)CC2)c1.Cl | HEK-293T | rule met |
